Listing: melting point of selected compounds
endpoint: melting point (°C)

1. Cn1cncc1C(O)(c1ccc(C=O)cc1)c1ccc2c(c1)c(-c1cccc(Cl)c1)nc1nnnn12 (stereo not shown) [Example B38] :: 170
2. Cn1cnnc1C(N)(c1ccc(Cl)cc1)c1ccc2c(c1)c(-c1cccc(Cl)c1)nc1nnnn12 (stereo not shown) [Example B28e] :: 220
3. Cn1cncc1C(O)(c1ccc([N+](=O)[O-])cc1)c1ccc2c(c1)c(-c1cccc(Cl)c1)cc(=O)n2C (racemic) [Example B4] :: 230
4. Cn1cnnc1C(CCl)(c1ccc(Cl)cc1)c1ccc2c(c1)c(-c1cccc(Cl)c1)cc(=O)n2C (stereo not shown) [Example B31] :: 260
5. CSc1nnc(C(O)(c2ccc(Cl)cc2)c2ccc3c(c2)c(-c2cccc(Cl)c2)nc2nnnn23)n1C (stereo not shown) [Example B28b] :: 65
6. Cn1cnnc1C(c1ccc(Cl)cc1)c1ccc2c(c1)c(-c1cccc(Cl)c1)cc(=O)n2C (stereo not shown) [Example B7] :: 153

* * *

endpoint: melting point (°C)

1. Cn1cnnc1C(O)(c1ccc(I)cc1)c1ccc2c(c1)C(c1cccc(Cl)c1)Nc1nnnn1-2 (stereo not drawn) :: 201
2. Cn1cncc1C(O)(c1ccc(C=O)cc1)c1ccc2c(c1)c(-c1cccc(Cl)c1)cc(=O)n2C (racemic) :: 208
3. Cn1cncc1C(N)(c1ccc([N+](=O)[O-])cc1)c1ccc2c(c1)c(-c1cccc(Cl)c1)cc(=O)n2C (racemic) :: 258
4. Cn1c(=O)cc(-c2cccc(Cl)c2)c2cc(C(N)(c3ccc(Cl)cc3)c3cnccc3Cl)ccc21 (stereo not drawn) [Example B40b] :: 180
5. CCOC(=O)c1cn2c(cc(-c3cccc(Cl)c3)c3cc(C(c4ccc(Cl)cc4)c4nncn4C)ccc32)n1 (stereo not drawn) :: 220
6. Cn1c(=O)cc(-c2cccc(Cl)c2)c2cc(C(O)(c3ccc(Cl)cc3)c3cnccc3N)ccc21 (stereo not drawn) :: 262
7. CC(O)c1ccc(C(O)(c2ccc3c(c2)c(-c2cccc(Cl)c2)cc(=O)n3C)c2cncn2C)cc1 (racemic) :: 181
8. Cn1cnnc1C(c1ccc(Cl)cc1)c1ccc2c(c1)c(-c1cccc(Cl)c1)nc1nnnn12 (stereo not drawn) :: 217
9. Cn1cncc1C(N)(c1ccc(C#N)cc1)c1ccc2c(c1)c(-c1cccc(Cl)c1)cc(=O)n2C (stereo not drawn) [Example B41d] :: 245
